Reported Percent Effect values are given for each entry in this list.
Tested on: Arginase-2, mitochondrial (Homo sapiens) (UniProt P78540)
Sequence (P78540 whole entry): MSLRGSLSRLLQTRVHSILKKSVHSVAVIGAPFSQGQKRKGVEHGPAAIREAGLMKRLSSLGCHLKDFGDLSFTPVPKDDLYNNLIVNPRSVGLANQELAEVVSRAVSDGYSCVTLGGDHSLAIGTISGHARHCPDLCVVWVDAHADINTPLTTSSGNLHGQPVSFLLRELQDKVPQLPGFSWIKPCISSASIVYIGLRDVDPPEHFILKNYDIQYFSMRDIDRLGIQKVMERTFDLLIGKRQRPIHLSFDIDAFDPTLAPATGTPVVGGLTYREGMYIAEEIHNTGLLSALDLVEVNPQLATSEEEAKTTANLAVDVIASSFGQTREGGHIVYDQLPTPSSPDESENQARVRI
Protocol text: in vitro enzyme assay to detect the production of urea directly proportional to the activity of Arginase II; note: in the data most compounds retested in dose-response had high values
Format: functional
Parameters: scale not given: direction of the effect not stated beside the values
Test parameters: 33.3 µM
Numeric answer only, unit % assumed.

Previously resolved entries follow.
>  <Compound>
O=C(CSC1CCc2ccccc2NC1=O)NCCO (centres undefined)

>  <Unit text>
%

>  <Percent Effect>
-3.15

$$$$
>  <Compound>
Cc1n[nH]c(C)c1C1CCCN1C(=O)NCCSC(C)(C)C (centres undefined)

>  <Unit text>
%

>  <Percent Effect>
-0.909

$$$$
>  <Compound>
CCO[C@@H]1CCN(C(=O)c2cscn2)[C@@H]1Cc1cnn(C)c1

>  <Unit text>
%

>  <Percent Effect>
2.1

$$$$
>  <Compound>
Cc1cnn(CC2CN(CC(=O)NCCc3cccs3)CCO2)c1 (centres undefined)

>  <Unit text>
%

>  <Percent Effect>
0.887

$$$$

Now look at this entry.
Query (compound): CNC(=O)C1Cn2ccnc2C2(CCN(Cc3cccnc3)CC2)O1 (centres undefined) ; field requested: Percent Effect
-0.319

---

Known Percent Effect of a selection of molecules
Tested on: Trypanosoma cruzi
Protocol text: Trypanosoma cruzi phosphomannomutase and mannose-1-phosphate guanylyltransferase assay
Format: functional
Design: scale not given: direction of the effect not stated beside the values
Test parameters: 10 µM
Record the value in %, omitting the unit from your answer.

Known Percent Effect results, listed for orientation:
>  <Molecule>
Cc1nc(C)n(CC2CN(CCOCC(F)(F)F)CCO2)n1 (centres undefined)

>  <Percent Effect / %>
0.602

$$$$
>  <Molecule>
COCC(=O)N1Cc2cnc(Cc3ccc(OC)cc3)nc2C1

>  <Percent Effect / %>
0.392

$$$$
>  <Molecule>
Cc1cccc(N2CC[C@@H]3CN(Cc4csc(C)n4)CCO[C@@H]3C2)n1

>  <Percent Effect / %>
6.52

$$$$
>  <Molecule>
CCn1nnc2c1C(COC)CN(Cc1cccs1)C2 (centres undefined)

>  <Percent Effect / %>
4.69

$$$$
>  <Molecule>
Cc1cc(C(=O)N2CCC(c3nccn3CCCN(C)C)CC2)no1

>  <Percent Effect / %>
2.74

$$$$
>  <Molecule>
O=C(c1ccc2c(c1)OCO2)N1CCCSCC1CN1CCCC1 (centres undefined)

>  <Percent Effect / %>
-1.08

$$$$
>  <Molecule>
O=C(NCCC1CCCO1)c1ccccc1N1CCOCC1 (centres undefined)

>  <Percent Effect / %>
4.56

$$$$
>  <Molecule>
CC(C)NC(=O)c1nnn(-c2cccc(C(F)(F)F)c2)c1N

>  <Percent Effect / %>
6.51

$$$$

Please look at the following molecule next.
Requested field: Percent Effect. Item: CCN(C)c1ncnc2c1CCN(Cc1ccc(OC)cc1)CC2
-2.04

---

Tested on: Ubiquitin-activating enzyme e1, putative (Leishmania donovani (strain BPK282A1)) (UniProt E9BSI1)
Sequence (E9BSI1 as listed by the source): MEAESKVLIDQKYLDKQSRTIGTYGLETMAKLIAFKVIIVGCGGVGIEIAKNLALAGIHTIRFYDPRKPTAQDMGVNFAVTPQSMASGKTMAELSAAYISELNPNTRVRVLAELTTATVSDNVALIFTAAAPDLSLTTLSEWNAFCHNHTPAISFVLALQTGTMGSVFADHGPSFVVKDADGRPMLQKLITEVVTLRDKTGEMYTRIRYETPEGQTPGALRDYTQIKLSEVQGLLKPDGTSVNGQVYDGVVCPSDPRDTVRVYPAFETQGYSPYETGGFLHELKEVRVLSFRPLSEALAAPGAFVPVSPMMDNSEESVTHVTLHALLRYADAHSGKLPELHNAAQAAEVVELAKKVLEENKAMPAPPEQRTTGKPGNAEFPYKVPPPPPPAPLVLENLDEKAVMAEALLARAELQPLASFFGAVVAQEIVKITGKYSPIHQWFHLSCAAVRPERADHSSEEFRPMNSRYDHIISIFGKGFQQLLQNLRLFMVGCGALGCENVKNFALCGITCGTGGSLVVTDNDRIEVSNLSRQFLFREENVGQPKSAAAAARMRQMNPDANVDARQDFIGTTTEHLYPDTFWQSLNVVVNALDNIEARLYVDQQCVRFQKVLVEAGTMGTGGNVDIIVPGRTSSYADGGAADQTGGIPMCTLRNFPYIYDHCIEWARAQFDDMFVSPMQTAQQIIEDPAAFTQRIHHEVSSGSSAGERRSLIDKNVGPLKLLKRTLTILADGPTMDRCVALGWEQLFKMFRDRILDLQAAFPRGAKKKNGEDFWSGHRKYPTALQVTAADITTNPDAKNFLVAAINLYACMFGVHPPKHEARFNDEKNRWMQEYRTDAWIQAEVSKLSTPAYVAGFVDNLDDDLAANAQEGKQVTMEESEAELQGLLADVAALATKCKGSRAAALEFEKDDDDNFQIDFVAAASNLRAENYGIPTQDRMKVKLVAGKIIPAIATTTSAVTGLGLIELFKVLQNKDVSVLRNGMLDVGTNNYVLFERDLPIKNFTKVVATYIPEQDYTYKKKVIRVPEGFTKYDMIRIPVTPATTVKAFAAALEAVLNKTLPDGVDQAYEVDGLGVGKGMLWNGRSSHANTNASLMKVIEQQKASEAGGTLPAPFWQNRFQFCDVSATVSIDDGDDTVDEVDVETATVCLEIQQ
Protocol text: Leishmania donovani Ubiquitin Activating Enzyme (LdE1)
Type: functional
Design: scale not given: direction of the effect not stated beside the values
Test parameters: 30 µM
Measured potencies and affinities stand elsewhere.
Observable: Percent Effect (%)
API: value field is a number in %; no unit string.

Some compounds with known Percent Effect results, for comparison:
>  <Compound>
Cc1ncccc1O[C@H]1CCN(C(=O)Cc2cccs2)CC[C@@H]1O

>  <Unit text>
%

>  <Percent Effect>
17.3

$$$$
>  <Compound>
CC(C)c1nc(C2CCCN2CC(=O)Nc2ccc(Cl)cn2)no1 (stereo unspecified)

>  <Unit text>
%

>  <Percent Effect>
18.7

$$$$
>  <Compound>
CC(C)c1nn(C)c(N(C)C)c1CNCCC(=O)N(C)C

>  <Unit text>
%

>  <Percent Effect>
0

$$$$
>  <Compound>
CN(C)C[C@H]1OC[C@@H]2CCN(S(=O)(=O)c3cccs3)C[C@@H]21

>  <Unit text>
%

>  <Percent Effect>
1.3

$$$$
>  <Compound>
Cc1ccccc1CSc1nc(N)cc(N2CCOC(C(N)=O)C2)n1 (stereo unspecified)

>  <Unit text>
%

>  <Percent Effect>
2.7

$$$$

Reported Percent Effect, compound CCC(=O)N1CCCC(c2cc(Nc3ncccn3)nc(C)n2)C1 (stereo unspecified) : ____
1.35

Entry c1cncc(-c2ccc3c(c2)C2(CC3)CCN(c3nncs3)CC2)c1 please
0

Now consider CCCc1cc(C(=O)N2CCCC(n3ccnc3C)C2)[nH]n1 (stereo unspecified) and answer again.
5.06

---

Tested on: Sialic acid-binding Ig-like lectin 9 (Homo sapiens) (UniProt Q9Y336)
Sequence (Q9Y336 whole entry): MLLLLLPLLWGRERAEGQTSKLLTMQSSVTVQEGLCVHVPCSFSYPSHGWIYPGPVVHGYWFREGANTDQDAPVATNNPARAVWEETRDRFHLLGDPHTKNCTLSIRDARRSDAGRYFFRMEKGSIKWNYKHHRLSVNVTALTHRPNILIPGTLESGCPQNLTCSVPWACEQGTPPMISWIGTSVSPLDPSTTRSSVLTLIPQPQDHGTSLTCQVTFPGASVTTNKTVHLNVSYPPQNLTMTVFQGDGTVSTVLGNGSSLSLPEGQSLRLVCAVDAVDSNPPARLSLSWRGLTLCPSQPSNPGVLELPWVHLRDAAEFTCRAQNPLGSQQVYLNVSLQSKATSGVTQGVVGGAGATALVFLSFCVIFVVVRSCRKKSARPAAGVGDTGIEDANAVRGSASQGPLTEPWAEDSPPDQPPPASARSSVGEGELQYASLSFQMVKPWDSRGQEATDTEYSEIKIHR
Protocol text: Hs-Siglec9 ALPHAscreen SOP 20170721
Design: scale not given: direction of the effect not stated beside the values
Test parameters: 10 µM
Parameter: Percent Effect. Scope: all listed entries.
Kindly answer with a numeric value in %, unit omitted.

Completed entries (count: 4):
>  <Compound>
Clc1ccc(-n2cc(CNC3CCc4ncnn4C3)cn2)cc1 (stereo not given)

>  <Tested on>
Sialic acid-binding Ig-like lectin 9 (Homo sapiens) (UniProt Q9Y336)

>  <Result>
3.29

$$$$
>  <Compound>
NC(=O)c1ccc(S(=O)(=O)NC(=O)COc2ccc3c(c2)CCC3)cc1

>  <Tested on>
Sialic acid-binding Ig-like lectin 9 (Homo sapiens) (UniProt Q9Y336)

>  <Result>
-3.01

$$$$
>  <Compound>
Cc1cnn(CCNCC(=O)NCC2(c3ccccc3)CCC2)c1

>  <Tested on>
Sialic acid-binding Ig-like lectin 9 (Homo sapiens) (UniProt Q9Y336)

>  <Result>
-13.1

$$$$
>  <Compound>
CCOCC(=O)N1C[C@@H](O)[C@H](N(C)Cc2ccc(OC)cc2)C1

>  <Tested on>
Sialic acid-binding Ig-like lectin 9 (Homo sapiens) (UniProt Q9Y336)

>  <Result>
3.17

$$$$

Pending compound:
Given the compound Cc1nnsc1C(=O)N1CCC2(CC1)c1nc[nH]c1CCN2CC(C)C , what is its reported Percent Effect?
-8.33

---

Listing of recorded Percent Effect by entry.
Tested on: AMP-activated protein kinase, AMPK (Homo sapiens) (UniProt P54646+O43741+P54619+Q9UGJ0+Q9Y478+Q13131+Q9UGI9)
Protocol text: AMP-dependent Kinase enzyme assay. An in vitro enzyme assay that detects ADP turnover that is directly proportional to AMPK activity. This uses naive AMPK that is activated during the assay with MK-8722
Format: functional
Design: scale not given: direction of the effect not stated beside the values
Test parameters: 30 µM
API: value field is a number in %; no unit string.

Would you please look over these solved cases?
>  <Molecule>
c1cnn(CC2CN(Cc3ccc(-n4ccnc4)cc3)CCO2)c1 (stereo not drawn)

>  <Unit text>
%

>  <Percent Effect>
-6.89

$$$$
>  <Molecule>
Cc1nc(C)n(CC2CCCN(CCC(=O)N3CCCCC3)C2)n1 (stereo not drawn)

>  <Unit text>
%

>  <Percent Effect>
7.57

$$$$

Turning to the following molecule.
Fill blank: measured Percent Effect of the molecule COc1ccc(C)cc1CN1CCCC1c1noc(C2CC2)n1 (stereo not drawn) is ____.
-7.59

---

Tested on: Tyrosyl-tRNA synthetase, putative (Trypanosoma cruzi (strain CL Brener)) (UniProt Q4DSP6)
Sequence (Q4DSP6 as listed by the source): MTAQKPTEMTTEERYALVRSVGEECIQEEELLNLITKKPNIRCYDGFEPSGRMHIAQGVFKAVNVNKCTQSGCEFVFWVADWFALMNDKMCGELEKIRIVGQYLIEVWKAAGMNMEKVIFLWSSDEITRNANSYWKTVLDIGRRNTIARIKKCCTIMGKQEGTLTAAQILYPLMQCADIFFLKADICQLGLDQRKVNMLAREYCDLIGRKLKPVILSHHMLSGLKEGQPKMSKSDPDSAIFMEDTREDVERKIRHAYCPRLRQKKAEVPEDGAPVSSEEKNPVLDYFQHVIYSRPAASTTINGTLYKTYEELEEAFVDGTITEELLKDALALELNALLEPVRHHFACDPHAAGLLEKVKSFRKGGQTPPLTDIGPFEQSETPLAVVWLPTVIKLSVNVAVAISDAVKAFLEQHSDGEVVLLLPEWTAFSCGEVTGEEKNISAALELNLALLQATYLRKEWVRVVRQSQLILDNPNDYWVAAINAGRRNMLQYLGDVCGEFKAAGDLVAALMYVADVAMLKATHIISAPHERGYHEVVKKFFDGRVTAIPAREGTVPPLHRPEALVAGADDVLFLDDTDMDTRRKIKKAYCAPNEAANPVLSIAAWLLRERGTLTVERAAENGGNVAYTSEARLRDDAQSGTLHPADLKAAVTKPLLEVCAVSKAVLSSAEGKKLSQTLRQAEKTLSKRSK
Protocol text: Trypanosoma cruzi tyrosyl tRNA synthetase (TcYRS) SOP
Assay type: functional
Set-up: scale not given: direction of the effect not stated beside the values
Test parameters: 30 µM
Lab note - cut at 6% for Percent Effect: Fulfilled if strictly below, Not fulfilled if not.

A selection of reference data follows.
>  <Structure as smiles>
COCCNC(=O)Nc1ccc(-n2cncn2)c(F)c1

>  <Assigned class>
Fulfilled

$$$$
>  <Structure as smiles>
O=C(Nc1ccc(N2CCCC2)nc1)N1CCc2sccc2C1

>  <Assigned class>
Not fulfilled

$$$$
>  <Structure as smiles>
Cc1ccc(F)cc1C(=O)N1C[C@@H](CN2CCOCC2)[C@@H](CO)C1

>  <Assigned class>
Not fulfilled

$$$$

Lab note: Percent Effect threshold 6%. Does this compound come in strictly under it? COCC(=O)N1CCC(c2nccn2CC2CC2)CC1
Not fulfilled

---

Percent Effect values, listed per item
Tested on: Proteasome subunit beta (Trypanosoma cruzi) (UniProt O96673)
Sequence (O96673 as listed by the source): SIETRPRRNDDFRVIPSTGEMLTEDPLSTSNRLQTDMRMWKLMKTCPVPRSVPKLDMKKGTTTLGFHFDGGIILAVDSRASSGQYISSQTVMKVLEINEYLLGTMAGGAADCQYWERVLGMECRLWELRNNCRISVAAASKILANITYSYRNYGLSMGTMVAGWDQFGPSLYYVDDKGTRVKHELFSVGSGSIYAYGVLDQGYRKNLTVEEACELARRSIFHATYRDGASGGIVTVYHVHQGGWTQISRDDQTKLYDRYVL
Protocol text: Trypanosoma cruzi proteasome chymotrypsin-like activity (TcProtChymo) assay. Note: in the data most compounds retested in dose-response had high values.
Type: functional
Set-up: scale not given: direction of the effect not stated beside the values
Test parameters: 9.37 µM
// return numeric value only (unit: %, not printed)

>  <Compound>
N#CC1(C(=O)N2CCN(Cc3cscn3)CC2)CCCC1

>  <Result>
3.19

$$$$
>  <Compound>
CCS(=O)(=O)c1ccccc1N1CCC(NC(C)=O)CC1

>  <Result>
-19.4

$$$$
>  <Compound>
Cn1cnc2c1CCN(Cc1csc(-c3ccsc3)n1)C2

>  <Result>
13.2

$$$$

Consider the additional compound presented here.
Lab note: need Percent Effect with Proteasome subunit beta (Trypanosoma cruzi) (UniProt O96673) for entry Cn1cccc1C(=O)N1CCCC2(CCN(CCN3CCCC3)C2=O)C1 (centres undefined) , please look it up.
7.65
